Tested on: HT-29
Assay: NCI tumour cell line growth inhibition, 48 h
Active and inactive are the calls of the source. No stated cut-off is given here; in the data, active = GI50 up to about 1.1 µM and inactive = higher.
Possible outcomes: active, inactive

>  <compound>
O=C1OCC/C1=C/c1ccc(/N=N/c2c(O)ccc3ccccc23)cc1

>  <qualitativeLabel>
inactive

$$$$
>  <compound>
COc1cc2cc(C(=O)Nc3cc4n(n3)-c3ccccc3C4)[nH]c2c(OC)c1OC

>  <qualitativeLabel>
inactive

$$$$
>  <compound>
C=CCNc1ccc(C)cc1

>  <qualitativeLabel>
inactive

$$$$
>  <compound>
CC(C)[C@]12O[C@H]1[C@@H]1O[C@]13[C@]1(O[C@H]1C[C@H]1C4=C(CC[C@@]13C)C(=O)OC4)[C@@H]2O [TRIPTOLIDE]

>  <qualitativeLabel>
active

$$$$
>  <compound>
O=C1C2CCN(CC2)C1CN1CCOCC1 (centres undefined)

>  <qualitativeLabel>
inactive

$$$$
>  <compound>
Cc1ccc(NC(=O)C2C(=O)N(c3ccc(C)c(C)c3)C(=O)C2N=N)cc1C (centres undefined)

>  <qualitativeLabel>
inactive

$$$$
>  <compound>
O=C1NC(N2CCOCC2)=N/C1=C\c1ccccc1

>  <qualitativeLabel>
inactive

$$$$
>  <compound>
O=[N+]([O-])c1ncc(N(CCO)CCO)s1

>  <qualitativeLabel>
inactive

$$$$
>  <compound>
CC(C)Cn1cnc2c(Sc3c([N+](=O)[O-])ncn3C)nc(N)nc21

>  <qualitativeLabel>
inactive

$$$$
>  <compound>
O=c1[nH]c2ccccc2c(=O)n1/N=C\c1ccccc1O

>  <qualitativeLabel>
inactive

$$$$
>  <compound>
Cc1ccc(-c2cc(-c3c(C)nn(C)c(=O)c3N)n[nH]2)cc1

>  <qualitativeLabel>
inactive

$$$$
>  <compound>
O=C1CSC2(CC(/C=C/c3ccccc3Br)=NN2c2cccc(S(=O)(=O)O)c2)N1c1nc2ccccc2s1 (centres undefined)

>  <qualitativeLabel>
inactive

$$$$
>  <compound>
CC#CC#C/C=C1/O[C@]2(CCC(OC(=O)CC(C)C)CO2)[C@@H]2O[C@H]12 (some centres undefined)

>  <qualitativeLabel>
inactive

$$$$
>  <compound>
O=c1[nH]/c(=C/c2ccc3c(c2)OCO3)c(=O)[nH]/c1=C/c1ccc2c(c1)OCO2

>  <qualitativeLabel>
inactive

$$$$
>  <compound>
CC(ON(C(c1ccccc1)C(C)C)C(C)(C)C)c1ccccc1 (centres undefined)

>  <qualitativeLabel>
inactive

$$$$
>  <compound>
S=C(Nc1ccccc1)Nc1ccccc1SC(/C=C/NNC1=NN=C(c2ccccc2)C(c2ccccc2)N1)c1ccccc1 (centres undefined)

>  <qualitativeLabel>
inactive

$$$$
>  <compound>
CCOC(=O)C(C)Sc1nnc(COc2ccccc2OC)n1-c1ccccc1 (centres undefined)

>  <qualitativeLabel>
inactive

$$$$
>  <compound>
CNCCCn1c2ccccc2c2c3c(c(-c4ccsc4)cc21)C(=O)NC3=O

>  <qualitativeLabel>
active

$$$$
>  <compound>
N=C(N)NCCCC(NCc1c2ccccc2[n+]([O-])c2ccccc12)C(=O)O (centres undefined)

>  <qualitativeLabel>
inactive

$$$$
>  <compound>
CCOC(=O)C(Br)(C(N)=O)C1(O)OC(c2ccccc2)=C(Br)C1=O (centres undefined)

>  <qualitativeLabel>
inactive

$$$$
>  <compound>
O=C1CC(c2cccc(Br)c2)n2cccc21 (centres undefined)

>  <qualitativeLabel>
inactive

$$$$
>  <compound>
OC1CCCC1C(O)(C(F)(F)F)C(F)(F)F (centres undefined)

>  <qualitativeLabel>
inactive

$$$$
>  <compound>
Cc1cc(O)nc(NN2C(Cl)C(=O)C2c2cccc(O)c2)n1 (centres undefined)

>  <qualitativeLabel>
inactive

$$$$
>  <compound>
Cc1c(C(=O)NNc2ccccc2)n2c(S)nnc2c2ccccc12

>  <qualitativeLabel>
inactive

$$$$
>  <compound>
O=C(CSC1=NCCN1)c1ccccc1

>  <qualitativeLabel>
inactive

$$$$
>  <compound>
CC1=C2C(O)C(C(C)CO)C(O)CC2(C)C(O)CC1 (centres undefined)

>  <qualitativeLabel>
inactive

$$$$
>  <compound>
CCOC(=O)C1CC(O)C(=O)N1C (centres undefined)

>  <qualitativeLabel>
inactive

$$$$
>  <compound>
O=C(CSc1nc(O)nc2[nH]cnc12)Nc1ccccc1

>  <qualitativeLabel>
inactive

$$$$
>  <compound>
CCOC(OCC)(OCC)C(Br)CC (centres undefined)

>  <qualitativeLabel>
inactive

$$$$
>  <compound>
O=C(CCc1cc(O)cc(O)c1)NCCc1cc(O)cc(O)c1

>  <qualitativeLabel>
inactive

$$$$
>  <compound>
[N-]=[N+]=Nc1ccc(CNc2cc(=O)[nH]c(=O)[nH]2)cc1

>  <qualitativeLabel>
inactive

$$$$
>  <compound>
Nc1ccc(Oc2ccc(C3(c4ccc(Oc5ccc(N)cc5)cc4)C4CC5C6CC7CC5C3C(C7)C6C4)cc2)cc1

>  <qualitativeLabel>
active

$$$$
>  <compound>
CC(C)c1cc2c(c(O)c1O)[C@@]1(C(=O)O)CCCC(C)(C)[C@@H]1CC2

>  <qualitativeLabel>
inactive

$$$$
>  <compound>
O=C1Nc2ccc([N+](=O)[O-])cc2/C1=N/NC(=S)Nc1ccc([N+](=O)[O-])cc1

>  <qualitativeLabel>
inactive

$$$$
>  <compound>
CCN(CC)c1nc(N(C)C)c2ccc(OC)cc2n1

>  <qualitativeLabel>
inactive

$$$$
>  <compound>
CC(C)=CCC[C@@H](C)C1=C(O)C(=O)C(C)=C(Nc2ccccc2F)C1=O

>  <qualitativeLabel>
inactive

$$$$
>  <compound>
[O-][S+](Cc1cc2c(cc1Br)OCO2)c1ccccc1 (centres undefined)

>  <qualitativeLabel>
inactive

$$$$
>  <compound>
COc1cc(C2c3cc4c(cc3OC(NNc3ccccc3)C2C)OCO4)cc(OC)c1O (centres undefined)

>  <qualitativeLabel>
inactive

$$$$
>  <compound>
O=C1/C(=N/CCc2cc(Br)c(O)c(Br)c2)C=C(O)c2cccnc21

>  <qualitativeLabel>
inactive

$$$$
